System tested: Alpha2C (Homo sapiens, UniProt P18825)
Construct: purchased NIMH Psychoactive Drug Screening Program (PDSP)
Sequence (P18825 whole entry): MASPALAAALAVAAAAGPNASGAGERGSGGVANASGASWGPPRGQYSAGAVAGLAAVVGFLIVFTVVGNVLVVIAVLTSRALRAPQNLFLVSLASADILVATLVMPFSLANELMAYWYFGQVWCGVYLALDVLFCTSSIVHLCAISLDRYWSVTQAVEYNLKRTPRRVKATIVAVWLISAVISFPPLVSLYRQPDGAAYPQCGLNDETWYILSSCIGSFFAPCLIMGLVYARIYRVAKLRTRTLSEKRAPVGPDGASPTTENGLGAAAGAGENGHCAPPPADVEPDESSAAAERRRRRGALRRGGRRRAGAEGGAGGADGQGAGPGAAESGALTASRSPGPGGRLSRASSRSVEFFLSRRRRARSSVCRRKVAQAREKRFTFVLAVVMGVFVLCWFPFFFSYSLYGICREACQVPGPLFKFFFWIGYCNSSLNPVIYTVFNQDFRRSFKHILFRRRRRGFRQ
Experiment summary: PDSP primary binding Alpha2C
Cond: 1.5 h; primary binding, 10,000 nM; last figure of the line = mean of the 4 before it; read-out: Alpha2C, PDSP raw data, mean
Measurement type: inhibition at 10 µM (%)
# number only, unit % dropped from output

Reference set (5 entries):
C#Cc1ccc2c(c1)C(c1ccccn1)=N[C@@H](C)c1c(C(=O)NC)ncn1-2 -0.12
C#Cc1ccc2c(c1)C(c1ccccc1Cl)=N[C@H](C)c1c(C(=O)NC)ncn1-2 -1.39
CCc1noc(-c2ncn3c2CN=C(c2ccccc2F)c2cc(C4CC4)ccc2-3)n1 15.7
CCc1noc(-c2ncn3c2[C@@H](C)N=C(c2ccccc2F)c2cc(Cl)ccc2-3)n1 1.43
C#Cc1ccc2c(c1)C(c1ccccc1F)=N[C@H](C)c1c(C(=S)N(C)C)ncn1-2 12.9

Look up inhibition at 10 µM of CCc1noc(-c2ncn3c2[C@@H](C)N=C(c2ccccc2F)c2cc(C4CC4)ccc2-3)n1 and report it.
11.9

Look up inhibition at 10 µM of C#Cc1ccc2c(c1)C(c1ccccc1Cl)=N[C@H](C)c1c(C(=O)N(C)CC)ncn1-2 and report it.
19.9

Look up inhibition at 10 µM of CCc1noc(-c2ncn3c2[C@@H](C)N=C(c2ccccc2F)c2cc(-c4ccccc4)ccc2-3)n1 and report it.
31.6

* * *

inhibition at 10 µM overview
System tested: Alpha3Beta2 (Rattus norvegicus, UniProt P04757+P12390)
Construct: purchased NIMH Psychoactive Drug Screening Program (PDSP)
Sequence (P04757 26-499): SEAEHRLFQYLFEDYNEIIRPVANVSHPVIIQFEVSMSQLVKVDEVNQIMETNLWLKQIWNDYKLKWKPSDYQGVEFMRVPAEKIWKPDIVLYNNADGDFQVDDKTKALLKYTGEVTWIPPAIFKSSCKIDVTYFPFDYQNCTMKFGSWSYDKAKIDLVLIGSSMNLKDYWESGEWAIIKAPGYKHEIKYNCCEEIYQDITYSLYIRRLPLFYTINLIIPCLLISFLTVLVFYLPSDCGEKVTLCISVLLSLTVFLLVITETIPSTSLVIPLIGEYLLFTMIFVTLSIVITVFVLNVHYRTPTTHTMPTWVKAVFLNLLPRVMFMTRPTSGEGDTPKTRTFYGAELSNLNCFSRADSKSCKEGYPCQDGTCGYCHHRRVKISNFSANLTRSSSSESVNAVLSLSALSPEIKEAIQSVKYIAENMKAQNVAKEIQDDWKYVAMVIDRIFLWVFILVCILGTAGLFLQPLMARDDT
Sequence (P12390 25-500): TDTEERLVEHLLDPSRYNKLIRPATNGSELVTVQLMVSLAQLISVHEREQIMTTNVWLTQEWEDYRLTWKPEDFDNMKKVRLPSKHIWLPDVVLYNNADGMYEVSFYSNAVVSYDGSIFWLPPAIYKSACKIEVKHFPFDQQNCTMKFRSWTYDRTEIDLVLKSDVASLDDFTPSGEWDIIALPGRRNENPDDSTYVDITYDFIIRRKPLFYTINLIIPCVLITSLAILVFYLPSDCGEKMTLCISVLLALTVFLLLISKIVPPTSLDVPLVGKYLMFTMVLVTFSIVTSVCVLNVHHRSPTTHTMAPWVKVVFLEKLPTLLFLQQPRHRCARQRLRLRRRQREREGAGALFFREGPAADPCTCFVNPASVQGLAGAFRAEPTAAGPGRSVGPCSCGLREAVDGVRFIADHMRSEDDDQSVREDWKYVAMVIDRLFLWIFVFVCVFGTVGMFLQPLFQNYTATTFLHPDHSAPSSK
Experiment summary: PDSP primary binding Alpha3Beta2
Cond: primary binding, 10,000 nM; last figure of the line = mean of the 4 before it; read-out: Alpha3Beta2, PDSP raw data, mean
# number only, unit % dropped from output

Reference set (5 entries):
CCc1noc(-c2ncn3c2[C@@H](C)N=C(c2ccccc2F)c2cc(C4CC4)ccc2-3)n1 5.55
C#Cc1ccc2c(c1)C(c1ccccc1Cl)=N[C@H](C)c1c(C(=O)N(C)CC)ncn1-2 3.52
CCc1noc(-c2ncn3c2[C@@H](C)N=C(c2ccccc2F)c2cc(-c4ccccc4)ccc2-3)n1 5.43
C[C@H]1N=C(c2ccccc2F)c2cc(Cl)ccc2-n2cnc(-c3nc(C4CC4)no3)c21 6.96
C#Cc1ccc2c(c1)C(c1ccccc1Cl)=N[C@H](C)c1c(C(=O)NC)ncn1-2 3.21

Look up inhibition at 10 µM of CCc1noc(-c2ncn3c2CN=C(c2ccccc2F)c2cc(C4CC4)ccc2-3)n1 and report it.
-0.02

Look up inhibition at 10 µM of C#Cc1ccc2c(c1)C(c1ccccn1)=N[C@@H](C)c1c(C(=O)NC)ncn1-2 and report it.
7.13

Look up inhibition at 10 µM of C#Cc1ccc2c(c1)C(c1ccccc1F)=N[C@H](C)c1c(C(=S)N(C)C)ncn1-2 and report it.
2.14

Look up inhibition at 10 µM of CC(C)c1noc(-c2ncn3c2[C@@H](C)N=C(c2ccccc2F)c2cc(Cl)ccc2-3)n1 and report it.
5.77

Look up inhibition at 10 µM of CCc1noc(-c2ncn3c2[C@@H](C)N=C(c2ccccc2F)c2cc(Cl)ccc2-3)n1 and report it.
6.01

Look up inhibition at 10 µM of C[C@H]1N=C(c2ccccc2F)c2cc(-c3ccccc3)ccc2-n2cnc(C(=O)N(C)C)c21 and report it.
2.14

Look up inhibition at 10 µM of C#Cc1ccc2c(c1)C(c1ccccn1)=N[C@@H](C)c1c(C(=O)N(C)C)ncn1-2 and report it.
3.57

* * *

inhibition at 10 µM overview
System tested: M3 (Homo sapiens)
Construct: purchased NIMH Psychoactive Drug Screening Program (PDSP)
Sequence (P20309 whole entry): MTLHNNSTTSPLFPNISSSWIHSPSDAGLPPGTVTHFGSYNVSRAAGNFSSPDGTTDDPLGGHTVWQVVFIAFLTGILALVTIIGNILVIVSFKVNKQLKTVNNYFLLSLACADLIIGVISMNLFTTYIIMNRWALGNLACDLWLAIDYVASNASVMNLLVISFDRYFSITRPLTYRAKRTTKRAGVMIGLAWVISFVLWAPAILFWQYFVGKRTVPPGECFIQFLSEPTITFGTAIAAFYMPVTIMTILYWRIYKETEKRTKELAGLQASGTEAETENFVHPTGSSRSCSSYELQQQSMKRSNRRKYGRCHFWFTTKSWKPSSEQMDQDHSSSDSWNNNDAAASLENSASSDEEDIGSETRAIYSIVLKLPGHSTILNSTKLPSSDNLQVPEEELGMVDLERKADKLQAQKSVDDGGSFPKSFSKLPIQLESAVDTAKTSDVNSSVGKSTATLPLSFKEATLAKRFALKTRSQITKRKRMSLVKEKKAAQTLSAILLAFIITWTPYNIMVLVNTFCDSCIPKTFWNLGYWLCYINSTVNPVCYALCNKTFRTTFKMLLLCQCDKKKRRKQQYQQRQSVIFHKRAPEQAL
Experiment summary: PDSP primary binding M3
Cond: primary binding, 10,000 nM; last figure of the line = mean of the 4 before it; read-out: M3, PDSP raw data, mean
# number only, unit % dropped from output

Reference set (3 entries):
Compound	inhibition at 10 µM / %
C#Cc1ccc2c(c1)C(c1ccccn1)=N[C@@H](C)c1c(C(=O)NC)ncn1-2 [Compound 23]	0.11
CC(C)c1noc(-c2ncn3c2[C@@H](C)N=C(c2ccccc2F)c2cc(Cl)ccc2-3)n1 [Compound 37]	15.6
C#Cc1ccc2c(c1)C(c1ccccc1Cl)=N[C@H](C)c1c(C(=O)N(C)CC)ncn1-2 [Compound 29]	-8.9

Look up inhibition at 10 µM of CCc1noc(-c2ncn3c2[C@@H](C)N=C(c2ccccc2F)c2cc(C4CC4)ccc2-3)n1 [Compound 46] and report it.
8.95

* * *

inhibition at 10 µM overview
System tested: Alpha1B (Homo sapiens, UniProt P35368)
Construct: purchased NIMH Psychoactive Drug Screening Program (PDSP)
Sequence (P35368 whole entry): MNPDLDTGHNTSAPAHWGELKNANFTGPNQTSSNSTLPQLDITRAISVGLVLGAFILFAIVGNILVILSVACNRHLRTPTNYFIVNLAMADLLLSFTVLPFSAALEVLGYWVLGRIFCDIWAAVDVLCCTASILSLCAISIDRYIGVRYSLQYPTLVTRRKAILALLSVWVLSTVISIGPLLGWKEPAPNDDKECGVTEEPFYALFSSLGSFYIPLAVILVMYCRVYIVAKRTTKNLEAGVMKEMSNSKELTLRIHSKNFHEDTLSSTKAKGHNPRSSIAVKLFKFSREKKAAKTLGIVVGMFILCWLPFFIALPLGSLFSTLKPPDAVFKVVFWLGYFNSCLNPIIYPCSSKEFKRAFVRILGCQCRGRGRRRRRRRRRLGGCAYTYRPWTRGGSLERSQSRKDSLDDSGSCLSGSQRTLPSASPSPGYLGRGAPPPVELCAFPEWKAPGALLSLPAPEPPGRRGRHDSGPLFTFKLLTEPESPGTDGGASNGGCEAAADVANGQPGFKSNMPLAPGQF
Experiment summary: PDSP primary binding Alpha1B
Cond: 1.5 h; primary binding, 10,000 nM; last figure of the line = mean of the 4 before it; read-out: Alpha1B, PDSP raw data, mean
# number only, unit % dropped from output

C#Cc1ccc2c(c1)C(c1ccccn1)=N[C@@H](C)c1c(C(=O)N(C)C)ncn1-2 11
CCc1noc(-c2ncn3c2CN=C(c2ccccc2F)c2cc(C4CC4)ccc2-3)n1 6.87
C[C@H]1N=C(c2ccccc2F)c2cc(-c3ccccc3)ccc2-n2cnc(C(=O)N(C)C)c21 -15.3
C#Cc1ccc2c(c1)C(c1ccccc1Cl)=N[C@H](C)c1c(C(=O)NC)ncn1-2 -6.66
CCc1noc(-c2ncn3c2[C@@H](C)N=C(c2ccccc2F)c2cc(-c4ccccc4)ccc2-3)n1 8.69
C#Cc1ccc2c(c1)C(c1ccccc1F)=N[C@H](C)c1c(C(=S)N(C)C)ncn1-2 -15.3

Look up inhibition at 10 µM of C#Cc1ccc2c(c1)C(c1ccccc1Cl)=N[C@H](C)c1c(C(=O)N(C)CC)ncn1-2 and report it.
19.8

Look up inhibition at 10 µM of CCc1noc(-c2ncn3c2[C@@H](C)N=C(c2ccccc2F)c2cc(Cl)ccc2-3)n1 and report it.
-0.79

* * *

System tested: Beta3 (Homo sapiens)
Construct: purchased NIMH Psychoactive Drug Screening Program (PDSP)
Sequence (P13945 whole entry): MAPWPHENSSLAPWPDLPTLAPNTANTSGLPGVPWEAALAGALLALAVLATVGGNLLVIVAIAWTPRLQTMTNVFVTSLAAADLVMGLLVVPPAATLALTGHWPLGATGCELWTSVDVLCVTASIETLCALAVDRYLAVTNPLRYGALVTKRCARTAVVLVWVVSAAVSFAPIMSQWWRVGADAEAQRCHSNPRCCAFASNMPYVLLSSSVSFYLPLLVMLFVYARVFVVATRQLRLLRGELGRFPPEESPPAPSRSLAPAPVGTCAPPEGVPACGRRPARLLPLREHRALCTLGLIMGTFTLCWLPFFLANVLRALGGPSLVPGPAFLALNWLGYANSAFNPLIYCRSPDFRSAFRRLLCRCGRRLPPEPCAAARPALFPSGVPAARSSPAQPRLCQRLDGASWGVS
Experiment summary: PDSP primary binding Beta3
Cond: 1.5 h; primary binding, 10,000 nM; last figure of the line = mean of the 4 before it; read-out: Beta3, PDSP raw data, mean
Measurement type: inhibition at 10 µM (%)
# number only, unit % dropped from output

C#Cc1ccc2c(c1)C(c1ccccc1F)=N[C@H](C)c1c(C(=S)N(C)C)ncn1-2 -19.4
CCc1noc(-c2ncn3c2[C@@H](C)N=C(c2ccccc2F)c2cc(Cl)ccc2-3)n1 1.76

Look up inhibition at 10 µM of CCc1noc(-c2ncn3c2[C@@H](C)N=C(c2ccccc2F)c2cc(C4CC4)ccc2-3)n1 and report it.
31.1

Look up inhibition at 10 µM of C#Cc1ccc2c(c1)C(c1ccccc1Cl)=N[C@H](C)c1c(C(=O)N(C)CC)ncn1-2 and report it.
9.72

Look up inhibition at 10 µM of CC(C)c1noc(-c2ncn3c2[C@@H](C)N=C(c2ccccc2F)c2cc(Cl)ccc2-3)n1 and report it.
46

Look up inhibition at 10 µM of C#Cc1ccc2c(c1)C(c1ccccc1Cl)=N[C@H](C)c1c(C(=O)NC)ncn1-2 and report it.
10.7

Look up inhibition at 10 µM of C#Cc1ccc2c(c1)C(c1ccccn1)=N[C@@H](C)c1c(C(=O)NC)ncn1-2 and report it.
0.63

Look up inhibition at 10 µM of C[C@H]1N=C(c2ccccc2F)c2cc(Cl)ccc2-n2cnc(-c3nc(C4CC4)no3)c21 and report it.
24.2

Look up inhibition at 10 µM of C[C@H]1N=C(c2ccccc2F)c2cc(-c3ccccc3)ccc2-n2cnc(C(=O)N(C)C)c21 and report it.
-19.4

Look up inhibition at 10 µM of CCc1noc(-c2ncn3c2CN=C(c2ccccc2F)c2cc(C4CC4)ccc2-3)n1 and report it.
-4.01

Look up inhibition at 10 µM of CCc1noc(-c2ncn3c2[C@@H](C)N=C(c2ccccc2F)c2cc(-c4ccccc4)ccc2-3)n1 and report it.
27.9

Look up inhibition at 10 µM of C#Cc1ccc2c(c1)C(c1ccccn1)=N[C@@H](C)c1c(C(=O)N(C)C)ncn1-2 and report it.
-6.68

* * *

Tested on: NR2B
Experiment summary: PDSP primary binding NR2B
Cond: primary binding, 10,000 nM; last figure of the line = mean of the 4 before it
Measurement type: NR2B, PDSP raw data, mean
Please state the number and follow it with the unit.

Molecule	NR2B, PDSP raw data, mean
C[C@H]1N=C(c2ccccc2F)c2cc(-c3ccccc3)ccc2-n2cnc(C(=O)N(C)C)c21 [Compound 5]	3.79%
C#Cc1ccc2c(c1)C(c1ccccc1Cl)=N[C@H](C)c1c(C(=O)N(C)CC)ncn1-2 [Compound 29]	-14.08%
C[C@H]1N=C(c2ccccc2F)c2cc(Cl)ccc2-n2cnc(-c3nc(C4CC4)no3)c21 [Compound 38]	31.49%
C#Cc1ccc2c(c1)C(c1ccccn1)=N[C@@H](C)c1c(C(=O)NC)ncn1-2 [Compound 23]	-22.69%
CC(C)c1noc(-c2ncn3c2[C@@H](C)N=C(c2ccccc2F)c2cc(Cl)ccc2-3)n1 [Compound 37]	34.46%

Look up NR2B, PDSP raw data, mean of CCc1noc(-c2ncn3c2[C@@H](C)N=C(c2ccccc2F)c2cc(C4CC4)ccc2-3)n1 [Compound 46] and report it.
32.88%

Look up NR2B, PDSP raw data, mean of C#Cc1ccc2c(c1)C(c1ccccn1)=N[C@@H](C)c1c(C(=O)N(C)C)ncn1-2 [Compound 31] and report it.
-10.18%

Look up NR2B, PDSP raw data, mean of CCc1noc(-c2ncn3c2[C@@H](C)N=C(c2ccccc2F)c2cc(Cl)ccc2-3)n1 [Compound 36] and report it.
14.42%

Look up NR2B, PDSP raw data, mean of C#Cc1ccc2c(c1)C(c1ccccc1F)=N[C@H](C)c1c(C(=S)N(C)C)ncn1-2 [Compound 33] and report it.
3.79%

Look up NR2B, PDSP raw data, mean of CCc1noc(-c2ncn3c2[C@@H](C)N=C(c2ccccc2F)c2cc(-c4ccccc4)ccc2-3)n1 [Compound 35] and report it.
24.81%

Look up NR2B, PDSP raw data, mean of C#Cc1ccc2c(c1)C(c1ccccc1Cl)=N[C@H](C)c1c(C(=O)NC)ncn1-2 [Compound 21] and report it.
-8.82%

Look up NR2B, PDSP raw data, mean of CCc1noc(-c2ncn3c2CN=C(c2ccccc2F)c2cc(C4CC4)ccc2-3)n1 [Compound 44] and report it.
21.74%
